This collection of values is drawn from the supplement of paper PMC8253809.

// values below are reported growth inhibition
Tested on: HGGX39 (paediatric high-grade glioma line)
Assay: growth inhibition (% activity, log2 RLU normalised to DMSO / staurosporine); higher = more growth inhibition
Settings: 33 µM
Return type: number; implicit unit %.

* CC1=CC(=O)c2ccccc2C1=O | 1.01
* Cc1ccc(S(=O)(=O)NC(=O)NN2CC3CCCC3C2)cc1 (stereo unspecified) | 1.58
* CN1CCCCC1CCN1c2ccccc2Sc2ccc([S+](C)[O-])cc21 (stereo unspecified) | -0.329

Ask: What value of growth inhibition has been recorded for this entry: `CCC[C@@H]1C[C@@H](C(=O)N[C@@H]([C@H]2O[C@H](SC)[C@H](O)[C@@H](O)[C@H]2O)[C@@H](C)O)N(C)C1`
Result: -0.628

Ask: What value of growth inhibition has been recorded for this entry: `CC(=O)OCC(=O)NCCCOc1cccc(CN2CCCCC2)c1`
Result: -1.44

Ask: What value of growth inhibition has been recorded for this entry: `C[C@H](CS)C(=O)N1CCC[C@H]1C(=O)O`
Result: 1.84

Ask: What value of growth inhibition has been recorded for this entry: `CN(C)C/C=C/C(=O)Nc1cc2c(Nc3ccc(F)c(Cl)c3)ncnc2cc1O[C@H]1CCOC1`
Result: 11.5

Ask: What value of growth inhibition has been recorded for this entry: `C[C@H]1C[C@H]2[C@@H]3CCC4=CC(=O)C=C[C@]4(C)[C@H]3C(=O)C[C@]2(C)[C@@]1(O)C(=O)CO`
Result: -0.401

Ask: What value of growth inhibition has been recorded for this entry: `CCOC(=O)O[C@]1(C(=O)OCCl)CC[C@H]2[C@@H]3CCC4=CC(=O)C=C[C@]4(C)[C@H]3[C@@H](O)C[C@@]21C`
Result: 2.53

Ask: What value of growth inhibition has been recorded for this entry: `C[C@@H]1[C@H](O)[C@@H](C)/C=C/C=C/C=C/C=C/C=C/C=C/C=C/[C@H](O[C@@H]2O[C@H](C)[C@@H](O)[C@H](N)[C@@H]2O)C[C@@H]2O[C@](O)(C[C@@H](O)C[C@@H](O)[C@H](O)CC[C@@H](O)C[C@@H](O)CC(=O)O[C@H]1C)C[C@H](O)[C@H]2C(=O)O`
Result: 1.45

Ask: What value of growth inhibition has been recorded for this entry: `O=C1CC[C@@H](C(=O)N2CSC[C@H]2C(=O)O)N1`
Result: 3.63

Ask: What value of growth inhibition has been recorded for this entry: `CC(C)OC(=O)OCOP(=O)(CO[C@H](C)Cn1cnc2c(N)ncnc21)OCOC(=O)OC(C)C`
Result: 4.93

Ask: What value of growth inhibition has been recorded for this entry: CN(C)CCC(c1ccc(Br)cc1)c1ccccn1 (stereo unspecified)
Result: 1.57

Ask: What value of growth inhibition has been recorded for this entry: `CC[C@H](C)C(=O)O[C@H]1CCC=C2C=C[C@H](C)[C@H](CC[C@@H]3C[C@@H](O)CC(=O)O3)[C@H]21`
Result: 21.1

Ask: What value of growth inhibition has been recorded for this entry: `CCOC(=O)C1=C[C@@H](OC(CC)CC)[C@H](NC(C)=O)[C@@H](N)C1`
Result: -0.188

Ask: What value of growth inhibition has been recorded for this entry: `O=C(O)C[C@H](O)C[C@H](O)/C=C/c1c(C2CC2)nc2ccccc2c1-c1ccc(F)cc1`
Result: 48.3
